assay: Effect on Wnt signaling pathway in human SW480 cells harbouring TCF/LEF luciferase reporter gene and SP5-Luc reporter gene incubated for 36 to 48 hrs by luminescence assay; assay type: cell-based
In plain terms, low EC50, meaning strictly below 100 nM, gives yes (1), and everything else gives no (0).

Consider the following illustrative entries.
CCCC(=O)Nc1cncc(-c2cnc3[nH]nc(-c4cc5c(-c6cc(F)cc(CNS(C)(=O)=O)c6)cncc5[nH]4)c3c2)c1 :: no (0)
CC(C)CC(=O)Nc1cncc(-c2ccc3[nH]nc(-c4nc5c(N6CCN(C)CC6)cccc5[nH]4)c3c2)c1 :: no (0)
O=C(Nc1cc2cc(-c3cncc(NC4CCNCC4)n3)ccc2cn1)C1CCCCC1 :: no (0)
c1cncc(-c2ccc3[nH]nc(-c4nc5c(-c6cccnc6)cncc5[nH]4)c3c2)c1 :: yes (1)

**Query** Is EC50 of CCCCC(=O)Nc1cncc(-c2ccc3[nH]nc(-c4cc5cccnc5[nH]4)c3c2)c1 strictly below 100 nM?
**Result** no (0)

**Query** Is EC50 of CCCCC(=O)Nc1cncc(-c2ccc3[nH]nc(-c4nc5c(-c6ccoc6)cncc5[nH]4)c3n2)c1 strictly below 100 nM?
**Result** no (0)

**Query** Is EC50 of CCNCc1cncc(-c2ccc3[nH]nc(-c4cc5c(-c6cccnc6)ccnc5[nH]4)c3c2)c1 strictly below 100 nM?
**Result** no (0)

**Query** Is EC50 of FC1(F)CCN(Cc2cncc(-c3ccc4[nH]nc(-c5cc6c(-c7cccnc7)ccnc6[nH]5)c4c3)c2)C1 strictly below 100 nM?
**Result** no (0)

**Query** Is EC50 of Cc1ccc(C(=O)Nc2c[nH]nc2C(=O)Nc2ccc(OCCN3CCCC3)nc2)cn1 strictly below 100 nM?
**Result** no (0)

**Query** Is EC50 of Cc1n[nH]c2ccc(-c3cncc(OCC4(F)CNC4)n3)cc12 strictly below 100 nM?
**Result** no (0)

**Query** Is EC50 of CN(C)Cc1cncc(-c2ccc3[nH]nc(-c4cc5c(-c6cccc(F)c6)nccc5[nH]4)c3c2)c1 strictly below 100 nM?
**Result** no (0)

**Query** Is EC50 of Fc1ccccc1-c1nccc2[nH]c(-c3n[nH]c4cnc(-c5cncc(CN6CCCC6)c5)cc34)cc12 strictly below 100 nM?
**Result** no (0)

====

// EC50 lookup, one value per entry
assay: Effect on Wnt signaling pathway in human SW480 cells harbouring TCF/LEF luciferase reporter gene and SP5-Luc reporter gene incubated for 36 to 48 hrs by luminescence assay; type: cell-based
Expressed in nM, but write only the number.

Solved entries (count: 3):
CCC(=O)Nc1cncc(-c2cnc3[nH]nc(-c4cc5c(-c6cccc(F)c6)cncc5[nH]4)c3c2)c1 :: 246
O=C(Nc1cncc(-c2cc3c(-c4cc5c(-c6ccc(F)cc6)nccc5[nH]4)n[nH]c3cn2)c1)C1CC1 :: 844
Cc1ccncc1-c1cnc2[nH]nc(-c3cc4c(-c5cccnc5)cncc4[nH]3)c2c1 :: 2250

So for CS(=O)(=O)NCc1cc(F)cc(-c2cncc3[nH]c(-c4n[nH]c5ccc(-c6cncc(NC(=O)C7CCC7)c6)cc45)cc23)c1 , the logged EC50 turned out to be 554

So for Fc1cccc(-c2nccc3[nH]c(-c4n[nH]c5ccc(-c6cccnc6)nc45)cc23)c1 , the logged EC50 turned out to be 1350

So for COc1ccc(NC(=O)c2n[nH]c3ccc(-c4cncc(CN5CCCC5)c4)cc23)cn1 , the logged EC50 turned out to be 50

====

experiment: Effect on Wnt signaling pathway in human SW480 cells harbouring TCF/LEF luciferase reporter gene and SP5-Luc reporter gene incubated for 36 to 48 hrs by luminescence assay; format: cell-based
Result type: EC50 (nM)
Expressed in nM, but write only the number.

Fc1ccc(-c2nnc(-c3n[nH]cc3/C=C/c3cccnc3)o2)cc1 :: 1510
Fc1ccccc1-c1cncc2[nH]c(-c3n[nH]c4ncc(-c5cn[nH]c5)cc34)cc12 :: 375
CC(C)Nc1cncc(-c2ccc3[nH]nc(-c4nc5c(-c6ccoc6)nccc5[nH]4)c3n2)c1 :: 297
CC(C)Nc1cncc(-c2ccc3[nH]nc(-c4nc5c(-c6ccccc6F)cncc5[nH]4)c3c2)c1 :: 1
c1cc2[nH]c(-c3n[nH]c4ncc(-c5cncc(CN6CCCCC6)c5)cc34)cc2cn1 :: 1540
O=C(Nc1ccc(CN2CCCC2)cc1)c1n[nH]c2ccc(-c3cncnc3)cc12 :: 1310
O=C(Nc1ccnnc1)c1n[nH]c2ccc(-c3cncc(CN4CCCCC4)c3)cc12 :: 40
O=C(Nc1cncc(-c2cc3c(-c4cc5cnccc5[nH]4)n[nH]c3cn2)c1)C1CCCCC1 :: 1620
CN1CCC(Oc2ccc(NC(=O)c3n[nH]c4cc(F)c(-c5cnn(C)c5)cc34)cn2)CC1 :: 120
Cc1n[nH]c2ccc(-c3cncc(O[C@H]4CCNC[C@@H]4F)n3)cc12 :: 672

So for CO[C@H]1CC[C@H](C(=O)Nc2cc3cc(-c4cnn(C)c4CN4CCCCC4)ccc3cn2)CC1 , the logged EC50 turned out to be 471

So for CC(C)C(=O)Nc1cncc(-c2cc3c(-c4cc5c(N6CCN(C)CC6)cccc5[nH]4)n[nH]c3cn2)c1 , the logged EC50 turned out to be 700

So for CN1CCN(c2ccnc3[nH]c(-c4n[nH]c5ccc(-c6cncc(N)c6)cc45)cc23)CC1 , the logged EC50 turned out to be 1170

====

target: Dual specificity protein kinase CLK3 (Homo sapiens); assay: Inhibition of recombinant CLK3 (unknown origin) using Ser/Thr 18 peptide as substrate incubated for 1 hr in presence of ATP by FRET assay
Sequence (P49761 whole entry): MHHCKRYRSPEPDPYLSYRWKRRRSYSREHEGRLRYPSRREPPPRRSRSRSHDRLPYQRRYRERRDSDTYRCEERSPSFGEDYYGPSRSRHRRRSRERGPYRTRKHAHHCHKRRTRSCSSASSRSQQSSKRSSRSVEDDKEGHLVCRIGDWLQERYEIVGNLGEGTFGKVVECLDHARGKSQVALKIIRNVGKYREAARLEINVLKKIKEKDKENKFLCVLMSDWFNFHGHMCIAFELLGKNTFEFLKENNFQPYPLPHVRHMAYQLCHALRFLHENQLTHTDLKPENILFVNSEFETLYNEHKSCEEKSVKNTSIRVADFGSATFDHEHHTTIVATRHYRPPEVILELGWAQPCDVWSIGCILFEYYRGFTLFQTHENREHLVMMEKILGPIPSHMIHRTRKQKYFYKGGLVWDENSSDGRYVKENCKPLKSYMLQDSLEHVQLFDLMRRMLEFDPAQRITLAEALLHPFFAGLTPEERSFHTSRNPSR
Result type: EC50 (nM)
Expressed in nM, but write only the number.

CC(C)N1CCC(c2nc(C(=O)Nc3cc4cc(-c5cnn(C)c5)ccc4cn3)co2)CC1 :: 20

So for FC1(F)CCN(Cc2cncc(-c3ccc4[nH]nc(-c5cc6cccnc6[nH]5)c4n3)c2)C1 , the logged EC50 turned out to be 370

====

assay: Effect on Wnt signaling pathway in human SW480 cells harbouring TCF/LEF luciferase reporter gene and SP5-Luc reporter gene incubated for 36 to 48 hrs by luminescence assay; assay type: cell-based
pEC50: −log10 of the molar value.
Assign class by pEC50: not lower than 7 means Criterion met; lower than 7 means Criterion not met.

Consider the following illustrative entries.
CC(C)NC(=O)c1n[nH]c2ccc(-c3cncc(CN4CCC(F)(F)CC4)c3)cc12 :: Criterion met
O=C(Nc1cncc(-c2cnc3[nH]nc(-c4cc5c(-c6cccnc6)cccc5[nH]4)c3c2)c1)C1CCC1 :: Criterion not met

**Query** Identify whether the reported pEC50 of the following compound is 7 or greater: CS(=O)(=O)NCc1cc(F)cc(-c2cncc3[nH]c(-c4n[nH]c5ccc(-c6cncnc6)nc45)cc23)c1
**Result** Criterion not met

**Query** Identify whether the reported pEC50 of the following compound is 7 or greater: Nc1cncc(-c2cc3c(-c4cc5c(-c6ccccc6F)nccc5[nH]4)n[nH]c3cn2)c1
**Result** Criterion not met

**Query** Identify whether the reported pEC50 of the following compound is 7 or greater: O=C1CCc2cccc(c2)-c2cncc(c2)NC(=O)c2n[nH]c3ccc(cc23)-c2cncc(c2)CN1
**Result** Criterion not met

**Query** Identify whether the reported pEC50 of the following compound is 7 or greater: c1cnc2[nH]c(-c3n[nH]c4ccc(-c5cncc(OCCN6CCCC6)c5)cc34)cc2c1
**Result** Criterion not met

**Query** Identify whether the reported pEC50 of the following compound is 7 or greater: CN(C)C(=O)Nc1cncc(-c2cnc3[nH]nc(-c4nc5c(-c6cccc(F)c6)cncc5[nH]4)c3c2)c1
**Result** Criterion met

====

biological target: Dual specificity tyrosine-phosphorylation-regulated kinase 1A (Homo sapiens); assay: Inhibition of recombinant DYRK1A (unknown origin) using Ser/Thr 18 peptide as substrate incubated for 1 hr in presence of ATP by FRET assay
// EC50 lookup, one value per entry
Expressed in nM, but write only the number.

Solved entries (count: 6):
CCC(=O)Nc1cncc(-c2ccc3[nH]nc(-c4nc5c(-c6cccc(F)c6)cncc5[nH]4)c3c2)c1 :: 61
c1ncc(-c2ccc3[nH]nc(-c4cc5c(N6CCCCC6)cncc5[nH]4)c3c2)cc1CN1CCCC1 :: 24
CC(C)n1cc(C(=O)Nc2cc3cc(-c4cncn4C)ccc3cn2)cn1 :: 2
c1cc(-c2cncc3[nH]c(-c4n[nH]c5ccc(-c6cncc(CN7CCCCC7)c6)nc45)cc23)ccn1 :: 20
CCN(C)Cc1cncc(-c2cnc3[nH]nc(-c4nc5c(-c6cccc(F)c6)cncc5[nH]4)c3c2)c1 :: 8
Cn1cc(-c2cnc3[nH]nc(-c4nc5c(-c6cccc(F)c6)nccc5[nH]4)c3c2)cn1 :: 39

So for Fc1cccc(-c2cncc3[nH]c(-c4n[nH]c5ccc(-c6cncc(CN7CCC(F)(F)C7)c6)cc45)nc23)c1 , the logged EC50 turned out to be 28

So for c1cncc(-c2cc3c(-c4nc5ccccc5[nH]4)n[nH]c3cn2)c1 , the logged EC50 turned out to be 72

So for CC(C)CC(=O)Nc1cncc(-c2ccc3[nH]nc(-c4nc5c(-c6cccnc6)cncc5[nH]4)c3c2)c1 , the logged EC50 turned out to be 12
